# inhibition of growth at 1 µM annotations
Tested on: KB
Assay Procedure: Growth inhibition of human KB cells at 1 uM after 72 hrs by MTS assay
Format: functional
Condition Info: read-out: GI
Write the number in % without appending the unit.

Please review the following examples before continuing.
Smiles Entry | Obs Value
COc1ccc(-c2csc3c2-n2cc(-c4ccc(OC)c(OC)c4)cc2C3=O)cc1O | 15
COc1ccc(-c2csc3c2-n2cccc2C3=O)cc1O | 86
COc1ccc(-c2cc3n(c2)-c2c(-c4ccc(OC)c(O)c4)csc2C3=O)cc1O | 15
COc1ccc(-c2csc3c2-n2cc(-c4cccnc4)cc2C3=O)cc1O | 20

Which inhibition of growth at 1 µM is reported for this molecule? COc1ccc(-c2cc3n(c2)-c2c(-c4ccc(OC)c(O)c4)csc2C3=O)cc1
94

Repeat for the following molecule: COC(=O)/C=C/c1cc2n(c1)-c1c(-c3ccc(OC)c(O)c3)csc1C2=O
3

Repeat for the following molecule: COc1ccc(-c2csc3c2-n2cc(Br)cc2C3=O)cc1O
94
